System: Mus musculus
Test: Modulation of cardiovascular activity in mouse assessed as potentiation of norepinephrine induced pressure response at 2.5 mg/kg
Assay type: functional, organism-based
Activity calls are given as the source filed them. The rule behind the calls is not given here.
The reply should name one outcome from TRUE (active), FALSE (inactive)

>  <molecule>
CC1=N/C(=C\c2ccc(N(C)C)cc2)C(=O)N1c1ccc(OCC(O)CNc2ccc(Cl)cc2)cc1 (stereo not given)

>  <testTarget>
Mus musculus

>  <qualitativeLabel>
TRUE

$$$$
>  <molecule>
CC1=N/C(=C\c2ccoc2)C(=O)N1c1ccc(OCC2CO2)cc1 (stereo not given)

>  <testTarget>
Mus musculus

>  <qualitativeLabel>
TRUE

$$$$

Query: Could you check what this test reported for "CN(C)c1ccc(/C=C2\N=C(CCN3CCOCC3)N(c3ccc(O)cc3)C2=O)cc1" ?
Result: TRUE

Query: Likewise for CC1=N/C(=C\c2ccccc2)C(=O)N1c1ccc(OCC2CO2)cc1 (stereo not given) ?
Result: TRUE

Query: Same for "CC1=N/C(=C\c2ccoc2)C(=O)O1"
Result: FALSE

====

System: Mus musculus
Assay: Hypotensive activity in mouse assessed as decrease in immediate blood pressure at 2.5 mg/kg
Assay type: functional
measure: Activity (mmHg)
Value expressed in mmHg; do not type the unit.

Known Activity results, listed for orientation:
>  <molecule>
CN(C)c1ccc(/C=C2\N=C(CCN3CCOCC3)N(c3ccc(O)cc3)C2=O)cc1

>  <measure>
Activity

>  <units>
mmHg

>  <valueReported>
15

$$$$
>  <molecule>
CC1=N/C(=C\c2ccoc2)C(=O)N1c1ccc(OCC(O)CNc2ccc(Cl)cc2)cc1 (centres undefined)

>  <measure>
Activity

>  <units>
mmHg

>  <valueReported>
25

$$$$
>  <molecule>
CC1=N/C(=C\c2ccc(N(C)C)cc2)C(=O)N1c1ccc(OCC(O)CNc2ccc(Cl)cc2)cc1 (centres undefined)

>  <measure>
Activity

>  <units>
mmHg

>  <valueReported>
15

$$$$
>  <molecule>
CC1=N/C(=C\c2ccccc2)C(=O)N1c1ccc(OCC2CO2)cc1 (centres undefined)

>  <measure>
Activity

>  <units>
mmHg

>  <valueReported>
25

$$$$
>  <molecule>
CC1=N/C(=C\c2ccoc2)C(=O)N1c1ccc(OCC2CO2)cc1 (centres undefined)

>  <measure>
Activity

>  <units>
mmHg

>  <valueReported>
30

$$$$

Query: Record "CC1=N/C(=C\c2ccccc2)C(=O)N1c1ccc(O)cc1" : what is its Activity with Mus musculus?
Result: 15

Query: Thanks! And "CC1=N/C(=C\c2ccoc2)C(=O)N1c1ccc(O)cc1" ?
Result: 20

Query: Next molecule up: CC1=N/C(=C\c2ccc(N(C)C)cc2)C(=O)N1c1ccc(OCC2CO2)cc1 (centres undefined)
Result: 60

Query: Do the same for "O=C1/C(=C/c2ccoc2)N=C(CCN2CCOCC2)N1c1ccc(O)cc1" please
Result: 35

====

Assay: Toxicity in mouse
Format: organism-based
Details: in vivo, read-out: ALD50
measure: LD50

Known results for compounds:
>  <compound>
CC1=N/C(=C\c2ccoc2)C(=O)O1

>  <LD50>
> 500 mg/kg

$$$$
>  <compound>
CC1=N/C(=C\c2ccccc2)C(=O)N1c1ccc(O)cc1

>  <LD50>
> 200 mg/kg

$$$$
>  <compound>
O=C1/C(=C/c2ccccc2)N=C(CCN2CCOCC2)N1c1ccc(O)cc1

>  <LD50>
> 500 mg/kg

$$$$
>  <compound>
CC1=N/C(=C\c2ccoc2)C(=O)N1c1ccc(OCC2CO2)cc1 (stereo unspecified)

>  <LD50>
> 1000 mg/kg

$$$$
>  <compound>
CC1=N/C(=C\c2ccoc2)C(=O)N1c1ccc(OCC(O)CNc2ccc(Cl)cc2)cc1 (stereo unspecified)

>  <LD50>
> 500 mg/kg

$$$$

Query: Entry CC1=N/C(=C\c2ccccc2)C(=O)N1c1ccc(OCC(O)CNc2ccc(Cl)cc2)cc1 (stereo unspecified) : reported LD50 = ?
Result: > 200 mg/kg

Query: Follow-up entry: "CC1=N/C(=C\c2ccc(N(C)C)cc2)C(=O)O1"
Result: > 500 mg/kg

Query: Same read-out for "CC1=N/C(=C\c2ccccc2)C(=O)O1" ?
Result: > 500 mg/kg

Query: Proceed to CC1=N/C(=C\c2ccc(N(C)C)cc2)C(=O)N1c1ccc(OCC(O)CNc2ccc(Cl)cc2)cc1 (stereo unspecified)
Result: > 500 mg/kg

Query: And then "CC1=N/C(=C\c2ccoc2)C(=O)N1c1ccc(O)cc1" , what is it?
Result: > 500 mg/kg

Query: Next record, please: "CN(C)c1ccc(/C=C2\N=C(CCN3CCOCC3)N(c3ccc(O)cc3)C2=O)cc1"
Result: > 500 mg/kg

====

Test: Toxicity in mouse
Type: organism-based
Settings: in vivo, read-out: ALD50
measure: LD50

>  <compound>
O=C1/C(=C/c2ccoc2)N=C(CCN2CCOCC2)N1c1ccc(O)cc1

>  <LD50>
> 1000 mg/kg

$$$$
>  <compound>
CC1=N/C(=C\c2ccc(N(C)C)cc2)C(=O)N1c1ccc(O)cc1

>  <LD50>
> 500 mg/kg

$$$$
>  <compound>
CC1=N/C(=C\c2ccccc2)C(=O)N1c1ccc(OCC2CO2)cc1 (centres undefined)

>  <LD50>
> 500 mg/kg

$$$$

Query: Quick check: LD50 of CC1=N/C(=C\c2ccc(N(C)C)cc2)C(=O)N1c1ccc(OCC2CO2)cc1 (centres undefined) ?
Result: > 500 mg/kg

====

Test system: Mus musculus
Test: Analgesic activity in mouse assessed as maximum change in tail flick latency time at 10 mg/kg (reference value: 0.7 secs)
Type: functional
Decision: Time >= 4 s yields Criterion met, all other cases yield Criterion not met.

// below: answered compounds
>  <compound>
CC1=N/C(=C\c2ccoc2)C(=O)O1

>  <qualitativeLabel>
Criterion met

$$$$
>  <compound>
CC1=N/C(=C\c2ccoc2)C(=O)N1c1ccc(OCC(O)CNc2ccc(Cl)cc2)cc1 (stereo not given)

>  <qualitativeLabel>
Criterion met

$$$$
>  <compound>
CC1=N/C(=C\c2ccc(N(C)C)cc2)C(=O)N1c1ccc(OCC2CO2)cc1 (stereo not given)

>  <qualitativeLabel>
Criterion not met

$$$$

Query: I'd appreciate it if you could say whether "CC1=N/C(=C\c2ccoc2)C(=O)N1c1ccc(O)cc1" has Time at least equal to 4 s.
Result: Criterion not met

Query: Then what about the compound "CC1=N/C(=C\c2ccccc2)C(=O)N1c1ccc(O)cc1" ?
Result: Criterion met

====

Tested on: Mus musculus
Assay: Modulation of cardiovascular activity in mouse assessed as potentiation of norepinephrine induced pressure response at 2.5 mg/kg
Assay type: functional, organism-based
Activity calls are given as the source filed them. No cut-off for these calls is given here.
Output constraint: value belongs to true (1) = active, false (0) = inactive

>  <compound>
O=C1/C(=C/c2ccccc2)N=C(CCN2CCOCC2)N1c1ccc(O)cc1

>  <qualitativeLabel>
false (0)

$$$$

Query: Give the logged outcome of this assay for the following compound: "O=C1/C(=C/c2ccoc2)N=C(CCN2CCOCC2)N1c1ccc(O)cc1"
Result: true (1)

Query: Next up: "CC1=N/C(=C\c2ccoc2)C(=O)N1c1ccc(O)cc1"
Result: false (0)

Query: And for CC1=N/C(=C\c2ccccc2)C(=O)N1c1ccc(OCC(O)CNc2ccc(Cl)cc2)cc1 (stereo not given) ?
Result: true (1)

Query: Another compound to check: "CC1=N/C(=C\c2ccc(N(C)C)cc2)C(=O)N1c1ccc(O)cc1"
Result: true (1)

====

Here the recorded Time is given for each entry.
System: Mus musculus
Assay: Antidepressant activity in mouse assessed as total mean swimming time time at 5 mg/kg, ip (reference value: 2.08 to 3.12 min)
Format: functional
Return type: number; implicit unit min.

Some entries whose results are on file:
>  <compound>
CN(C)c1ccc(/C=C2\N=C(CCN3CCOCC3)N(c3ccc(O)cc3)C2=O)cc1

>  <Time [min]>
0.5

$$$$
>  <compound>
CC1=N/C(=C\c2ccc(N(C)C)cc2)C(=O)O1

>  <Time [min]>
1.5

$$$$
>  <compound>
CC1=N/C(=C\c2ccoc2)C(=O)N1c1ccc(OCC(O)CNc2ccc(Cl)cc2)cc1 (stereo not drawn)

>  <Time [min]>
2.83

$$$$
>  <compound>
CC1=N/C(=C\c2ccccc2)C(=O)N1c1ccc(OCC2CO2)cc1 (stereo not drawn)

>  <Time [min]>
1.68

$$$$
>  <compound>
CC1=N/C(=C\c2ccc(N(C)C)cc2)C(=O)N1c1ccc(OCC(O)CNc2ccc(Cl)cc2)cc1 (stereo not drawn)

>  <Time [min]>
0.84

$$$$

Query: Which measured Time value corresponds to "O=C1/C(=C/c2ccoc2)N=C(CCN2CCOCC2)N1c1ccc(O)cc1" ?
Result: 1.3

Query: Thanks! And "O=C1/C(=C/c2ccccc2)N=C(CCN2CCOCC2)N1c1ccc(O)cc1" ?
Result: 0.84

Query: // query: "CC1=N/C(=C\c2ccccc2)C(=O)N1c1ccc(O)cc1"
Result: 2.74

Taken from ChEMBL document CHEMBL4665849.
